Numbers sourced from PubChem BioAssay (NCI).

System: RPMI-8226 leukemia
Test: NCI tumour cell line growth inhibition, 48 h
Please go through the items and note down their GI50.

input: # return recorded GI50 for input "Cc1cnc2n(c1=O)Cc1ccccc1CO2"
output: 13.1 µM

input: Read off the recorded GI50 for "O=C(Nc1ccc(-n2cc(-c3ccncc3)c(-c3ccc(Cl)c(O)c3)n2)cc1)c1ccc(Cl)c(C(F)(F)F)c1"
output: 0.426 µM

input: Report GI50, nothing else, for this compound: "C=C(C=O)[C@@H]1CC=C(C=O)CC1"
output: 2.14 µM

input: Using the record for "Nc1nc(-c2ccccc2Cl)cc(-c2ccc(Cl)cc2Cl)n1" , state its measured GI50.
output: 3.1 µM

input: Please report the measured GI50 for "Cn1cc(C2=C(c3cn(CCCN/C(N)=N\[N+](=O)[O-])c4ccccc34)C(=O)NC2=O)c2ccccc21"
output: 5.64 µM

input: Determine from records and report GI50 for "O=[N+]([O-])c1ccc(N/N=C\c2ccc(O)cc2O)nc1"
output: 4.21 µM

input: Quick one: give measured GI50 for "CCOc1ccc(-n2cc(-c3ccc(N(C)C)cc3)[n+]3c2CCCCC3)cc1"
output: 0.0567 µM

input: Write down GI50 measured for item "Nc1c(S(=O)(=O)O)cc2c(c1Cl)C(=O)c1ccccc1C2=O"
output: > 100 µM

input: Recall and state the measured GI50 for "N=C(N)c1ccc(-c2ccc(-c3ccccc3)o2)o1" .
output: 2.89 µM

input: Return value of GI50 for input "Clc1ccc2c(NCCCNCc3ccc4c(c3)OCO4)ccnc2c1" , no commentary.
output: 2.31 µM

input: Output GI50 of COc1ccc2nc3c(cc2c1)C(=O)CC(C(F)(F)F)C3 (stereo not drawn)
output: 13.7 µM

input: Give the measured GI50 for "c1ccc(Oc2cnc3ccccc3n2)cc1"
output: > 100 µM

input: Using the record for "COc1cc2c(cc1OC)-c1c(c3ccc([N+](=O)[O-])cc3c(=O)n1CCCBr)C2=O" , state its measured GI50.
output: 3.33 µM
